# Tested on: 966289-007-R4-J1-PDC complex spheroid viability;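 also: spheroids exposed to the agents for seven days before readout; percent viability relative to DMSO vehicle control wells taken as 100%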
# protocol_notes: Anticancer human tumor 966289-007-R4-J1-PDC patient-derived pancreatic adenocarcinoma cell line growth inhibition [GQUAD]
# measurement_parameters: second compound 10 µM; first compound 0.316 µM; active compounds read low
Give measured viability, T/C for each item. Keep answers brief.
One number for each entry, in %.

Field: viability, T/C. Fill in for each record below.
1. C#Cc1c(F)ccc2cc(O)cc(-c3ncc4c(N5CC6CCC(C5)N6)nc(OCC56CCCN5CC(F)C6)nc4c3F)c12 (stereo not given) + CN(C)c1ccc(Nc2c3ccc(NC(=O)CCN4CCCC4)cc3nc3cc(NC(=O)CCN4CCCC4)ccc23)cc1
2. CC(C)(O)C1CCC(Nc2ccc3ncc(-c4cccc(C(F)(F)F)c4)n3n2)CC1 (stereo not given) + CN(C)c1ccc(Nc2c3ccc(NC(=O)CCN4CCCC4)cc3nc3cc(NC(=O)CCN4CCCC4)ccc23)cc1
3. CC(=O)O[C@H]1C(=O)[C@@]2(C)[C@H]([C@H](OC(=O)c3ccccc3)[C@]3(O)C[C@H](OC(=O)[C@H](O)[C@@H](NC(=O)c4ccccc4)c4ccccc4)C(C)=C1C3(C)C)[C@]1(OC(C)=O)CO[C@@H]1C[C@@H]2O + CN(C)c1ccc(Nc2c3ccc(NC(=O)CCN4CCCC4)cc3nc3cc(NC(=O)CCN4CCCC4)ccc23)cc1
4. O=C(c1cc(Cc2n[nH]c(=O)c3ccccc23)ccc1F)N1CCN(C(=O)C2CC2)CC1 + Cc1cnc(CNC(=O)c2c(=O)c3ccc(N4CCCN(C)CC4)nc3n3c2sc2ccccc23)cn1
5. O=C(NO)c1cnc(N2CCN(S(=O)(=O)c3ccc4ccccc4c3)CC2)nc1 + Cc1[nH]c2ccc(F)cc2c1-c1nc2c3cccnc3c3ncccc3c2[nH]1

Resp:
1: 103; 2: 104; 3: 3.67; 4: 0.18; 5: 115
